Tested target: P-glycoprotein (P-gp) (Homo sapiens, UniProt P08183)
Construct: In-vitro Caco-2 cell monolayers were used here as a model for potential drug absorption related problems and P-gp mediated transport of drugs; endogenous in cells; host or cells: Caco-2 (human colon carcinoma, ATCC)
Sequence (P08183 whole entry): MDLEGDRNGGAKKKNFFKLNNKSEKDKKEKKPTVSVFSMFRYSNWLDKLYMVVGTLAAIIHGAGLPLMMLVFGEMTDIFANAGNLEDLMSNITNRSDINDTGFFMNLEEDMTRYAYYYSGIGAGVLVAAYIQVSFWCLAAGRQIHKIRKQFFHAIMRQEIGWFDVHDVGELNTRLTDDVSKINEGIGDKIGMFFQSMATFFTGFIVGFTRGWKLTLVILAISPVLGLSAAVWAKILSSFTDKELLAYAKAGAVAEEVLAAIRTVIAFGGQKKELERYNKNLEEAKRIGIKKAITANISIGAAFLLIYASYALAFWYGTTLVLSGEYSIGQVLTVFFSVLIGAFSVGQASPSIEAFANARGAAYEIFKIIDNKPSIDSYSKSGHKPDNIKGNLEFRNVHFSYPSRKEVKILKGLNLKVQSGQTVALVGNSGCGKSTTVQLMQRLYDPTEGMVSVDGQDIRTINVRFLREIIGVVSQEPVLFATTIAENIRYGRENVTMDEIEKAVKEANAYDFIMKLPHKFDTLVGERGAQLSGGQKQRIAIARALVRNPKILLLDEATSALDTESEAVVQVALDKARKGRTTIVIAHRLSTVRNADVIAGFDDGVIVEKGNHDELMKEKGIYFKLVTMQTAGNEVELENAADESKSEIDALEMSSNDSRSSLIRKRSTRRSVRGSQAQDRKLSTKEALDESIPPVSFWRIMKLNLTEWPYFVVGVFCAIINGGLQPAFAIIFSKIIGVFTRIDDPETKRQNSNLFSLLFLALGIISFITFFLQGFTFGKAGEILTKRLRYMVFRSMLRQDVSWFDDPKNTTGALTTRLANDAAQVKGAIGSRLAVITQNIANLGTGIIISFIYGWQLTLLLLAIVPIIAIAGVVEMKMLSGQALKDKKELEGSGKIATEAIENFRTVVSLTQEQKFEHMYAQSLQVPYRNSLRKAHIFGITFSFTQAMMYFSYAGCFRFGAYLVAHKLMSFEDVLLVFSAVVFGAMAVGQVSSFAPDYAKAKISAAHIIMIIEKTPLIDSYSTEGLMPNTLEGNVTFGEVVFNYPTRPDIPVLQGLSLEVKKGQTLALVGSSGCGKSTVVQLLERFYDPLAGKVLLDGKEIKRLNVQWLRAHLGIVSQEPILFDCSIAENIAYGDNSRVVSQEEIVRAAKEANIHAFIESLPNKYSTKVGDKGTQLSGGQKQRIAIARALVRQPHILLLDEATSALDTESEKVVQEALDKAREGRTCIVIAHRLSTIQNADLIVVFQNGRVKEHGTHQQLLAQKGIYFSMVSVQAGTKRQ
Assay remarks: Bidirectional transport of rhodamine123 through Caco-2 monolayers co-incubated with antimalarials (P-gp inhibitory properties)
Format: in vitro ADME
Run conditions: human, Caco-2, probe rhodamine 123; 5 μM rh123; 300 μM antimalarial drugs section
Observation type: efflux ratio at 120 min, 5 µM

Specify reported efflux ratio at 120 min, 5 µM for the compound shown: COC(=O)c1ccccc1-c1c2ccc(=N)cc-2oc2cc(N)ccc12
5.7

---

Assay remarks: Bidirectional transport (Papp, efflux ratio) of antimalarials through Caco-2 cell monolayers
Format: in vitro ADME, human
Run conditions: human, Caco-2; Conc (μM) + inhibitor (μM): 10; first-named drug measured; read-out: Papp Bas-Ap
Observation type: Papp B→A at 120 min, 10 µM (nm/s)
Answer format: numeric, nm/s implied, no suffix.

# count of solved cases: 2
OC(c1cc(C(F)(F)F)nc2c(C(F)(F)F)cccc12)C1CCCCN1 (stereo not drawn); 66
CCN(CC)Cc1cc(Nc2ccnc3cc(Cl)ccc23)ccc1O; 215

As a next step, examine the compound that follows.
Specify reported Papp B→A at 120 min, 10 µM for the compound shown: C[C@H]1[C@H](N2CCS(=O)(=O)CC2)O[C@@H]2O[C@@]3(C)CC[C@H]4[C@H](C)CC[C@@H]1[C@@]24OO3
469

---

Here the recorded efflux ratio at 120 min, 10 µM is given for each entry.
Assay remarks: Bidirectional transport (Papp, efflux ratio) of antimalarials through Caco-2 cell monolayers
Type: in vitro ADME, human
Run conditions: human, Caco-2; Conc (μM) + inhibitor (μM): 10; Bas-Ap divided by Ap-Bas
Just the number.

OC(c1cc(C(F)(F)F)nc2c(C(F)(F)F)cccc12)C1CCCCN1 (centres unmarked); 0.7

As a next step, examine the compound that follows.
Specify reported efflux ratio at 120 min, 10 µM for the compound shown: C[C@H]1[C@H](N2CCS(=O)(=O)CC2)O[C@@H]2O[C@@]3(C)CC[C@H]4[C@H](C)CC[C@@H]1[C@@]24OO3
0.8

---

Assay remarks: Bidirectional transport (Papp, efflux ratio) of antimalarials through Caco-2 cell monolayers
Assay type: in vitro ADME, human
Run conditions: human, Caco-2, Conc (μM) + inhibitor (μM): 50; Bas-Ap divided by Ap-Bas
Observation type: efflux ratio at 120 min, 50 µM

Specify reported efflux ratio at 120 min, 50 µM for the compound shown: C[C@H]1[C@H](OC(=O)CCC(=O)O)O[C@@H]2O[C@@]3(C)CC[C@H]4[C@H](C)CC[C@@H]1[C@@]24OO3 [ART, artesunate]
1.5

---

Here the recorded Papp at 120 min is given for each entry.
Assay remarks: Bidirectional transport (Papp, efflux ratio) of antimalarials through Caco-2 cell monolayers
Type: in vitro ADME, human
Run conditions: human, Caco-2, Caco-2 monolayers; drug alone; read-out: Bas-Ap directional Papp, range over concentrations tested

C[C@H]1[C@H](N2CCS(=O)(=O)CC2)O[C@@H]2O[C@@]3(C)CC[C@H]4[C@H](C)CC[C@@H]1[C@@]24OO3; 35 to 47 ×10⁻⁶ cm/s

As a next step, examine the compound that follows.
Specify reported Papp at 120 min for the compound shown: OC(c1cc(C(F)(F)F)nc2c(C(F)(F)F)cccc12)C1CCCCN1 (centres unmarked)
5 to 7 ×10⁻⁶ cm/s
